Data credit: paper PMC12030253

# method: in vitro
# Format: cell-based, Mouse
# runParameters: mouse, Mean CC50 ± SD +Irr
Square brackets hold non-standard residues; d marks the D form. Peptide text beside a SMILES is read from it. Phe(4-F) = N[C@@H](Cc1ccc(F)cc1)C(=O)O

molecule	CC50
CC[C@H](C)[C@H](NC(=O)CNC(=O)[C@H](CO)NC(=O)[C@H](CC(C)C)NC(=O)[C@@H](NC(=O)[C@H](CCCNC(=N)N)NC(=O)CNC(=O)[C@@H](NC(=O)[C@H](CC(C)C)NC(=O)[C@@H]1CCCN1C(=O)[C@H](CC(C)C)NC(=O)[C@@H](N)Cc1ccc(F)cc1)[C@@H](C)CC)C(C)C)C(=O)N[C@@H](CC(C)C)C(N)=O [DT4F, Phe(4F)-LPLIGRVLSGILNH2] (H-[Phe(4-F)]LPLIGRVLSGIL-NH2)	40 µM
